target or test system: recombinant full-length HSET (Homo sapiens, UniProt Q9BW19)
Construct: 5 nM full-length human N-terminal His-tag HSET; His-tag (N)
Sequence (Q9BW19 whole entry): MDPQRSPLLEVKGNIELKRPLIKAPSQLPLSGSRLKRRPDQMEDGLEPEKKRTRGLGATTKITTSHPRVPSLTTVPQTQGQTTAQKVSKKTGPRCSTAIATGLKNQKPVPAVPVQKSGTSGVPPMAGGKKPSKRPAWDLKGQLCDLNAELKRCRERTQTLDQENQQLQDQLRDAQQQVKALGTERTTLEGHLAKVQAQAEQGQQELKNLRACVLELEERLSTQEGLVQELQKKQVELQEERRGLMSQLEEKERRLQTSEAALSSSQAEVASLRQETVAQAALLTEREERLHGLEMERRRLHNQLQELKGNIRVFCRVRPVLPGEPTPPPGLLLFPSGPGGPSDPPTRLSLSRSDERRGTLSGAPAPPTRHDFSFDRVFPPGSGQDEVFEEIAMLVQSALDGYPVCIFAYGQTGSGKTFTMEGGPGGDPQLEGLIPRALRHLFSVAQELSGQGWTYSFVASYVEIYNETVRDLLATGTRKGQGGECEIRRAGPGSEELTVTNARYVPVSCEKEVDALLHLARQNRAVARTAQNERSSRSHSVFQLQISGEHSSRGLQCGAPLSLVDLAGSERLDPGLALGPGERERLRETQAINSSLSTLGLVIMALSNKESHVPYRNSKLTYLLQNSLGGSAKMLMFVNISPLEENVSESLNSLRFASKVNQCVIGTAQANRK
assay details: ADP-Glo HSET assay (500 μM ATP)
Type: biochemical
study conditions: high ATP concentration of 500 μM; single determination or mean of two
Experimental: The HSET or Eg5 ATPase activity was measured using the ADP-Glo Kinase Assay kit (Promega, V9102). […] The luminescence was read after 45 min on a PheraStar FSX plate reader (BMG Labtech). […] Percentage inhibition was determined based on normalization to high controls (0% inhibition, all reagents with 100 nL of DMSO alone) and low controls (100% inhibition as a high control, without HSET). […]
recorded endpoint: IC50 (nM)

Examples with their reported IC50 follow.
CCCc1cc(C(=O)N[C@H](Cc2ccc(-c3cccc(OC(F)(F)F)c3)nc2)C(=O)N[C@@H]2CCNC2)sc1C [Compound 1, reference compound] | 825
CCCOC(=O)c1sc(NC(=O)C[C@H](CCCN(C)C)NC(=O)c2cccc(-c3noc(C)n3)c2)nc1C [Compound 36] | 90
CCOC(=O)c1sc(NC(=O)CCNC(=O)c2cccc(-c3noc(C)n3)c2)cc1C [Compound 26] | 332

A: CCOC(=O)c1sc(NC(=O)CCNC(=O)c2cccc(-c3nnn(C)n3)c2)nc1C [Compound 18]
B: CCCOC(=O)c1sc(NC(=O)CCNC(=O)c2cccc(-c3noc(C)n3)c2)nc1C [Compound 32]
Lookup: Response body: label of entry with the larger IC50; valid values A , B . Pick one and reply with its label.
Found: A
